Study Target: UniProt P12822
Sequence (P12822 34-1310): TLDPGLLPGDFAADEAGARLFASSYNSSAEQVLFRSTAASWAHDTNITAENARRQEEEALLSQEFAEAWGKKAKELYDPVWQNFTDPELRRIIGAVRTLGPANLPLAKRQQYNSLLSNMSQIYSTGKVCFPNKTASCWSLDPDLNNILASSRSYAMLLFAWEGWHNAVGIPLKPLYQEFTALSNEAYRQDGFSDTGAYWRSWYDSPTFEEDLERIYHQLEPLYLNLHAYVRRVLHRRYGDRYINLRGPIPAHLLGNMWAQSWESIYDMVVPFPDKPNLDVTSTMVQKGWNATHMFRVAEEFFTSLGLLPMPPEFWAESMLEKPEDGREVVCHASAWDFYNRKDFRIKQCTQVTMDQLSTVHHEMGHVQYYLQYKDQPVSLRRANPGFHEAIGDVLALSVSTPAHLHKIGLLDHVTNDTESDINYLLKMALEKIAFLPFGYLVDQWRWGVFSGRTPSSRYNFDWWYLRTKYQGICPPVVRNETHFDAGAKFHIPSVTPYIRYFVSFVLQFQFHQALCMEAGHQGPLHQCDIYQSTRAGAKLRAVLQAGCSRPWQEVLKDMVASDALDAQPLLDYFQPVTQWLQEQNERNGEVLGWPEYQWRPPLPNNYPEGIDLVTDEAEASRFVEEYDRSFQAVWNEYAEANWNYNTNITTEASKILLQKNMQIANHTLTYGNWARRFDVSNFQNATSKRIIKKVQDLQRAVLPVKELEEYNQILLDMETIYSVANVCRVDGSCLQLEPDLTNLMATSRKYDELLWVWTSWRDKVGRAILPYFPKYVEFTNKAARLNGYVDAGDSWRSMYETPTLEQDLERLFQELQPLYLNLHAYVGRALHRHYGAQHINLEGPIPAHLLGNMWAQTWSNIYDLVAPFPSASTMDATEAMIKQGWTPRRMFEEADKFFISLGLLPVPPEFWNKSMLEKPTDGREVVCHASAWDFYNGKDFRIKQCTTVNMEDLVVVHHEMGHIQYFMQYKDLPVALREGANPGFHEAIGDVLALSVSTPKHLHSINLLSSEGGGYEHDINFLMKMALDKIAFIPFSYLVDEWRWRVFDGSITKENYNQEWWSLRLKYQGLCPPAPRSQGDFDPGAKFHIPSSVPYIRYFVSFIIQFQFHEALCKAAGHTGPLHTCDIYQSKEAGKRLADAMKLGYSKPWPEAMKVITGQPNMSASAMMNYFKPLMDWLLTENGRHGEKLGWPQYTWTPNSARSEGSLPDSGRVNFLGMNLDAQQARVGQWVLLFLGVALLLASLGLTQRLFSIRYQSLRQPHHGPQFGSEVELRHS
Method: Inhibition of Angiotensin I Converting Enzyme (ACE), HHL substrate, modified Cushman method
Format: biochemical
Details: compound concentration 0.1 μM; substrate hippuryl-L-histidyl-L-leucine; 37° C., 1 hour; read-out: ACE inhibitory activity (%)
inhibition at 0.1 µM values by entry

| Smiles Data | Study Target | inhibition at 0.1 µM (%) |
| --- | --- | --- |
| O=C(O)CN1C(=O)[C@@H](N[C@@H](CCCCCCC2CCNCC2)C(=O)O)CSc2ccccc21 | UniProt P12822 | 98 |
| O=C(O)CN1C(=O)[C@@H](N[C@@H](CCCCC2CCNCC2)C(=O)O)CSc2ccccc21 | UniProt P12822 | 98 |
| O=C(O)CN1C(=O)[C@@H](N[C@@H](CCC2CCOCC2)C(=O)O)CSc2ccccc21 | UniProt P12822 | 94 |
| O=C(O)CN1C(=O)[C@@H](N[C@@H](CCCCN2CCCCC2)C(=O)O)CSc2ccccc21 | UniProt P12822 | 92 |
| O=C(O)CN1C(=O)[C@@H](N[C@@H](CCC2CCNCC2)C(=O)O)CSc2ccccc21 | UniProt P12822 | 92 |
| O=C(O)CN1C(=O)[C@@H](N[C@@H](CCCC2CCNCC2)C(=O)O)CSc2ccccc21 | UniProt P12822 | 92 |
| O=C(O)CN1C(=O)[C@@H](N[C@@H](CCCCCC2CCNCC2)C(=O)O)CSc2ccccc21 | UniProt P12822 | 98 |
| O=C(O)CN1C(=O)[C@@H](N[C@@H](CCC2CCSCC2)C(=O)O)CSc2ccccc21 | UniProt P12822 | 89 |

Taken from patent US4638000A.
